Test system: UACC-257 melanoma
Experiment: NCI tumour cell line growth inhibition, 48 h
Param threshold (40 µM) applies to TGI; output 1 when value >= threshold, -1 when value < threshold.

1) CC[C@@H](/C=C\CCC1(C[C@H](O)CCC=C(C)C)OCCO1)O[Si](C(C)C)(C(C)C)C(C)C | 1
2) COC(=O)/C=c1/c2ccccc2n2nc3ccccc3c12 | 1
3) CCOc1cc(NC(C)=O)ccc1C(=O)NN1C(=O)/C(=C/c2cc(OC)c(OC)c(OC)c2)N=C1c1ccccc1 | 1
4) COc1ccc2nc3cc(Cl)ccc3c(NCCCN(CCCl)CCCl)c2c1 | 1
5) Cc1ccc2c(n1)C(=O)c1ccccc1C2=O | -1
6) CCCCN(Cc1ccc(F)cc1)c1ccc(CO)c(Cl)c1 | -1
7) Cc1ccc(S(N)(=O)=O)cc1 | 1
8) O=C1C(Cl)=C(Nc2cccc(O)c2)C(=O)N1c1cc(Cl)c(Cl)cc1Cl | 1
9) CSc1nc2c(nc(N)n2C2OCC(O)C(O)C2O)c(=O)n1C (configuration not stated) | 1
10) COc1cc(Nc2nc(N[C@H]3CCCC[C@@H]3N)nc3cc[nH]c(=O)c23)cc(OC)c1 | -1
11) COc1ccc2c(c1)OC(N(C(C)=O)C(C)=O)=C(C#N)C2c1ccc(F)cc1 (configuration not stated) | 1
12) OC1COC(n2c3ccc(Br)cc3c3ccc4c5ccccc5[nH]c4c32)C(O)C1O (configuration not stated) | -1
13) CC(=O)OCC1OC(n2ccc(=O)[nH]c2=O)C(OC(C)=O)C1OC(C)=O (configuration not stated) | 1
14) O=[N+]([O-])c1cccnc1NCC1(CO)CC(Cc2ccccc2)C1 (configuration not stated) | 1
15) COc1ccc(-c2cncn2-c2ccc(OC)cc2)cc1 | 1
16) COc1cccc(C(=O)C2C(=O)N(C)CCc3ccccc32)c1OC (configuration not stated) | 1
17) C[C@H](O)C1CC(Cn2nnc3c(N)ncnc32)C1(C)C (some centres not stated) | 1
18) Oc1ccc(CCCCCCc2ccc(O)cc2)cc1 | -1
19) c1cnc2[nH]cc(-c3csc(-c4cn(CCCCN5CCOCC5)c5ccccc45)n3)c2c1 | -1
20) CCCCn1cnc2c(SC)ncnc21 | 1
21) N/C(=N/n1c(=S)[nH]c2ccccc2c1=O)Nn1c(=S)[nH]c2ccccc2c1=O | 1
22) CC(=O)Oc1ccc(O)c(O)c1C/C=C(\C)CC/C=C(\C)CC/C=C(\C)CCC=C(C)C | -1

Source listed as PubChem BioAssay (NCI).
